assayComment: Urinary excretion of evogliptin at steady-state
Type: in vivo, human
particulars: human, urine and plasma, oral, 5 mg
measure: CL renal

[
  {
    "smiles": "CC(C)(C)OC[C@@H]1C(=O)NCCN1C(=O)C[C@H](N)Cc1cc(F)c(F)cc1F",
    "reading": "140 mL/min"
  }
]

###

assayComment: Plasma pharmacokinetics at steady-state, LC-MS/MS, noncompartmental analysis
Type: in vivo, human
particulars: human, plasma, oral, 4 mg

[
  {
    "molecule": "CCC1=C(C)CN(C(=O)NCCc2ccc(S(=O)(=O)NC(=O)N[C@H]3CC[C@H](C)CC3)cc2)C1=O [Glimepiride, glimepiride]",
    "half-life (h)": 4.7
  }
]

###

assayComment: Plasma pharmacokinetics at steady-state, LC-MS/MS, noncompartmental analysis
Type: in vivo, human
particulars: human, plasma, oral
measure: Tmax

[
  {
    "smiles": "CC(C)(C)OC[C@@H]1C(=O)NCCN1C(=O)C[C@H](N)Cc1cc(F)c(F)cc1F",
    "reading": "3.5 h"
  }
]

###

assayComment: Plasma pharmacokinetics at steady-state, LC-MS/MS, noncompartmental analysis
Type: in vivo, human
particulars: human, plasma, oral, 4 mg
measure: AUC (ng·h/mL)

[
  {
    "compound": "CCC1=C(C)CN(C(=O)NCCc2ccc(S(=O)(=O)NC(=O)N[C@H]3CC[C@H](C)CC3)cc2)C1=O [Glimepiride, glimepiride]",
    "reading": 1670
  }
]

###

assayComment: Plasma pharmacokinetics at steady-state, LC-MS/MS, noncompartmental analysis
Format: in vivo, human
particulars: human, plasma, oral, 4 mg
measure: Cmax (ng/mL)

[
  {
    "molecule": "CCC1=C(C)CN(C(=O)NCCc2ccc(S(=O)(=O)NC(=O)N[C@H]3CC[C@H](C)CC3)cc2)C1=O [Glimepiride, glimepiride]",
    "measure": "Cmax",
    "unitAbbrev": "ng/mL",
    "reading": 327
  }
]

###

assayComment: Plasma pharmacokinetics at steady-state, LC-MS/MS, noncompartmental analysis
Format: in vivo, human
particulars: human, plasma, oral, 5 mg

[
  {
    "molecule": "CC(C)(C)OC[C@@H]1C(=O)NCCN1C(=O)C[C@H](N)Cc1cc(F)c(F)cc1F [Evogliptin, evogliptin]",
    "AUC": "113 ng·h/mL"
  }
]

###

assayComment: Plasma pharmacokinetics at steady-state, LC-MS/MS, noncompartmental analysis
Assay type: in vivo, human
particulars: human, plasma, oral
Property: half-life; scope: individual compounds

[
  {
    "compound": "CC(C)(C)OC[C@@H]1C(=O)NCCN1C(=O)C[C@H](N)Cc1cc(F)c(F)cc1F",
    "unitAbbrev": "h",
    "half-life": 23.6
  },
  {
    "compound": "CCC1=C(C)CN(C(=O)NCCc2ccc(S(=O)(=O)NC(=O)N[C@H]3CC[C@H](C)CC3)cc2)C1=O [Glimepiride, glimepiride]",
    "unitAbbrev": "h",
    "half-life": 4.2
  }
]

###

assayComment: Plasma pharmacokinetics at steady-state, LC-MS/MS, noncompartmental analysis
Assay type: in vivo, human
particulars: human, plasma, oral, 5 mg
measure: half-life

[
  {
    "smiles": "CC(C)(C)OC[C@@H]1C(=O)NCCN1C(=O)C[C@H](N)Cc1cc(F)c(F)cc1F",
    "measure": "half-life",
    "reading": "28.4 h"
  }
]

###

assayComment: Urinary excretion of evogliptin at steady-state
Type: in vivo, human
particulars: human, urine and plasma, oral

[
  {
    "smiles": "CC(C)(C)OC[C@@H]1C(=O)NCCN1C(=O)C[C@H](N)Cc1cc(F)c(F)cc1F",
    "unitAbbrev": "mL/min",
    "CL renal": 148
  }
]
